src = PubChem BioAssay

ASSAY COMMENT: viability loss with induced miR-34 in A549 – imaging, A549 dox-inducible miR-34, nuclei and caspase counts, primary screen (AID 1347080)
APPLIED CONDITIONS: A549 miR-34 inducible, Hoechst nuclei count, 48 h; measured here: relative caspase fold change +Dox/-Dox
Here, each record is paired with measured fold change data.

MOLECULE | fold change
CO[C@@]1(NC(=O)[C@H](C(=O)O)c2ccc(O)cc2)C(=O)N2C(C(=O)O)=C(CSc3nnnn3C)CO[C@@H]21 | 1.17
Cc1nn(C)c(C)c1-c1ccnc(N2CCCC2c2nc(-c3cccnc3)no2)n1 (stereo unspecified) | 1.21
Nc1nc2[nH]c(=O)cnc2c(=O)[nH]1 | 0.997
CC1CC2C3CCC4=CC(=O)C=C[C@]4(C)[C@@]3(F)C(O)C[C@]2(C)C1C(=O)CO (stereo partly specified) | 1.08
CC(Oc1cc(-n2cnc3ccc(CN4CCN(C)CC4)cc32)sc1C(N)=O)c1ccccc1C(F)(F)F (stereo unspecified) | 0.688
CCc1ccc(CNC(=O)Nc2nc(C)n(C(C)C)n2)nc1 | 1.49
CC1COc2c(C3(N)CC3)c(F)cc3c(=O)c(C(=O)O)cn1c23 (stereo unspecified) | 1.6
O=C(O)CN(CCO)CCO | 0.542
CC(=O)NCCc1ccc(S(N)(=O)=O)cc1 | 0.641
O=C(c1ccc(C=Cc2n[nH]c3ccccc23)cc1)N1CCNCC1 | 0.981
NCCCNc1ccccc1[N+](=O)[O-] | 0.463

====

ASSAY COMMENT: liver-stage malaria parasite load reduction – cell-based, known kinase inhibitor set, luminescence, hepatoma host viability (AID 624392);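 also: infected cells incubated roughly two days before readout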
APPLIED CONDITIONS: Plasmodium liver stage in hepatoma cells, luciferase luminescence, concentration not given here; stronger effect = lower value
Here, each record is paired with measured parasite % of control data.

MOLECULE | UNITS SYMBOL | parasite % of control
NC(=O)c1cccc(-c2cnc(N)c(C(=O)c3cccnc3)n2)c1 | % | 179
CCN1CCN(Cc2ccc(NC(=O)c3ccc(C)c(NC(=O)c4ccnnc4)c3)cc2C(F)(F)F)CC1 | % | 100
Cc1ccc(C(=O)Nc2cccc(C(F)(F)F)c2)cc1Nc1ccccn1 | % | 54.6
O=C(Nc1ccc(-c2csc(Nc3ccccc3)n2)cc1)c1cc([N+](=O)[O-])cc(C(F)(F)F)c1 | % | 102
COc1cc(NC(=O)c2ccnc(N)c2)cc(C(=O)Nc2cccc(C(F)(F)F)c2)c1 | % | 89.2
O=C(Nc1cccc(-c2csc(Nc3ccc(Cl)cc3)n2)c1)c1ccccc1 | % | 112
CCN1CCN(Cc2ccc(NC(=O)c3ccc(C)c(NC(=O)c4nccn4C)c3)cc2C(F)(F)F)CC1 | % | 90.4
NC1=NC(=O)C(=Cc2ccc(-c3ccc(Cl)cc3)o2)S1 | % | 73.1
NC1=NC(=O)C(=Cc2ccc(-c3ccc(S(N)(=O)=O)cc3)o2)S1 | % | 97.3
C=CC(=O)Nc1ccc(N(C)c2ccnc(Nc3ccc(N4CCN(C)CC4)cc3)n2)cc1 | % | 27.8
CCN1CCN(Cc2ccc(NC(=O)c3cc(NC(=O)c4cnn(-c5ccccc5)c4N)cc(OC)c3)cc2C(F)(F)F)CC1 | % | 130
CS(=O)(=O)CCNCc1ccoc1-c1ccc2ncnc(Nc3ccc(OCc4ccccc4)cc3)c2c1 | % | 112
COC(=O)c1ccc2c(c1)[nH]c(=O)c1c(Nc3ccc(OC(F)(F)F)cc3)ncnc12 | % | 97.4
COc1cc(NC(=O)c2nccnc2N)cc(C(=O)Nc2cccc(C(F)(F)F)c2)c1 | % | 84.9
CC(C)(C)OC(=O)NC(COc1cncc(Br)c1)Cc1c[nH]c2ccccc12 (configuration not stated) | % | 98.7
COc1cc(C(=O)NC2CCN(C)CC2)ccc1Nc1ncc2c(n1)N(Cc1ccccc1)CCC(=O)N2C | % | 579
CN(C)CCCNc1ccc(-c2cc(Nc3cccc(Cl)c3)ncn2)cn1 | % | 108
